B1: TPR t1 (parent)
chain: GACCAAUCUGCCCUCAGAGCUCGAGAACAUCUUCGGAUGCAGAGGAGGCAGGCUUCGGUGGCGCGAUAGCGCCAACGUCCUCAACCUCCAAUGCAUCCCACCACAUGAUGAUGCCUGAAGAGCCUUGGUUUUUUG

variants of: B1; experiment: polymerase ribozyme fitness, log enrichment relative to wild type (log ratio); higher = more active; in vitro selection for triplet polymerase activity
Classification field: enter y for polymerase ribozyme fitness (log ratio) values not below -4, n for values below it.

// below: answered variants
### Prompt Could you verify whether the entry C56A U87G A108G G113C shows polymerase ribozyme fitness (log ratio) of no less than -4?
### Response y

### Prompt Hi team, for C79G C89U U112A , is the recorded polymerase ribozyme fitness (log ratio) at or above -4?
### Response y

### Prompt Does polymerase ribozyme fitness (log ratio) meet or surpass -4 for C20U G69U C70G C94A ?
### Response y

***
### Prompt # check: polymerase ribozyme fitness (log ratio) of G42U G48A G110C A111G is greater than or equal to -4
### Response n

### Prompt polymerase ribozyme fitness (log ratio) >= -4 for U81G U130A ?
### Response y

### Prompt Quick check: does G10C C13A G57U G61C A111U have polymerase ribozyme fitness (log ratio) greater than or equal to -4?
### Response n

### Prompt Given the entry U9G G52U C70G G122A , answer whether its polymerase ribozyme fitness (log ratio) meets or surpasses -4.
### Response n

### Prompt Given the entry C13G A37C U112C , answer whether its polymerase ribozyme fitness (log ratio) meets or surpasses -4.
### Response y
